Test system: rodent lifetime carcinogenesis bioassay, tumor incidence TD50
Experiment: carcinogenic potency in animals, long-term in vivo studies, CPDB compilation (AID 1745844)
Details: rat; strain Fischer 344; males; in feed; site: skin; lesion: sebaceous adenoma + trichoepithelioma; dosed 103 weeks; study length 104 weeks
reported-property: TD50 (mg/kg/day)
Provide the reading as a plain figure in mg/kg/day.

Form field TD50, entry NC(=O)NN=Cc1ccc([N+](=O)[O-])o1 : 151

----------
System: rodent lifetime carcinogenesis bioassay, tumor incidence TD50
Experiment: carcinogenic potency in animals, long-term in vivo studies, CPDB compilation (AID 1745844)
Conditions: rat; strain Charles River CD (Sprague-Dawley); males; inhaled; site: any site (literature study); lesion: one or several types; types not named; dosed 111 weeks; study length 111 weeks
reported-property: TD50 (mg/kg/day)
Your answer should be a plain number; it is taken to be in mg/kg/day.

// TD50 (rodent lifetime carcinogenesis bioassay, tumor incidence TD50) for C=CC=C = 1470

----------
Tested on: rodent lifetime carcinogenesis bioassay, tumor incidence TD50
Assay: carcinogenic potency in animals, long-term in vivo studies, CPDB compilation (AID 1745844)
Conditions: rat; strain Fischer 344; males; by gavage; site: testis; lesion: interstitial-cell adenoma; dosed 39 weeks; study length 104 weeks
reported-property: TD50 (mg/kg/day)
Field format: number, assumed mg/kg/day, no unit text.

Kindly note the recorded TD50 for O=c1ccc2ccccc2o1 , which is 19.8

----------
Test system: rodent lifetime carcinogenesis bioassay, tumor incidence TD50
Assay: carcinogenic potency in animals, long-term in vivo studies, CPDB compilation (AID 1745844)
Settings: mouse; strain Swiss albino; females; in drinking water; site: liver; lesion: hepatoma, benign; dosed 99 weeks; study length 100 weeks
reported-property: TD50 (mg/kg/day)
Report the figure in mg/kg/day without appending any unit label.

The molecule CN(N)C=O showed TD50 equal to 24.7

----------
System: rodent lifetime carcinogenesis bioassay, tumor incidence TD50
Assay: carcinogenic potency in animals, long-term in vivo studies, CPDB compilation (AID 1745844)
Details: rat; strain F344/DuCrj; males; in feed; site: colon; lesion: adenocarcinoma; dosed 104 weeks; study length 104 weeks
reported-property: TD50

Reported rodent lifetime carcinogenesis bioassay, tumor incidence TD50 TD50 for item Nc1ccc2nc3ccccn3c2n1 was 185 mg/kg/day

----------
Tested on: rodent lifetime carcinogenesis bioassay, tumor incidence TD50
Assay: carcinogenic potency in animals, long-term in vivo studies, CPDB compilation (AID 1745844)
Settings: rat; strain Donryu; females; in drinking water; site: several sites; sites named in the paper; lesion: squamous-cell carcinoma; dosed 52 weeks; study length 60 weeks
reported-property: TD50

So, CCCCCN(N=O)C(=O)OCC ? Its TD50 was 1.09 mg/kg/day

----------
Test system: rodent lifetime carcinogenesis bioassay, tumor incidence TD50
Assay: carcinogenic potency in animals, long-term in vivo studies, CPDB compilation (AID 1745844)
Conditions: mouse; strain B6C3F1; males; inhaled; site: liver; lesion: hepatocellular adenoma + hepatoblastoma + hepatocellular carcinoma; dosed 13 weeks; study length 104 weeks
reported-property: TD50 (mg/kg/day)
Quick reminder: number only, in mg/kg/day, skip the unit.

Input C=CC=C . Output TD50: 15.1

----------
System: rodent lifetime carcinogenesis bioassay, tumor incidence TD50
Assay: carcinogenic potency in animals, long-term in vivo studies, CPDB compilation (AID 1745844)
Settings: rat; strain Fischer 344; males; in feed; site: testis; lesion: interstitial-cell adenoma, bilateral + interstitial-cell adenoma; dosed 104 weeks; study length 105 weeks
reported-property: TD50 (mg/kg/day)
Enter your answer as a number in mg/kg/day; do not include the unit.

Form field, TD50 with rodent lifetime carcinogenesis bioassay, tumor incidence TD50, item OCC(CO)(CBr)CBr : 66.5

----------
Test system: rodent lifetime carcinogenesis bioassay, tumor incidence TD50
Assay: carcinogenic potency in animals, long-term in vivo studies, CPDB compilation (AID 1745844)
Conditions: rat; strain Donryu; females; in drinking water; site: any site (literature study); lesion: several types; types named in the paper; dosed 65 weeks; study length 65 weeks
reported-property: TD50 (mg/kg/day)
Return type: number; implicit unit mg/kg/day.

Entry CCCCCN(N=O)C(N)=O , rodent lifetime carcinogenesis bioassay, tumor incidence TD50 data, TD50 value: 1.93

----------
Tested on: rodent lifetime carcinogenesis bioassay, tumor incidence TD50
Test: carcinogenic potency in animals, long-term in vivo studies, CPDB compilation (AID 1745844)
Details: rat; strain Fischer 344; males; in feed; site: preputial gland; lesion: adenoma + carcinoma; dosed 12 weeks; study length 103 weeks
reported-property: TD50 (mg/kg/day)
Respond with the bare value in mg/kg/day.

Please fill in: TD50 reported for OCC(CO)(CBr)CBr = 39

----------
System: rodent lifetime carcinogenesis bioassay, tumor incidence TD50
Test: carcinogenic potency in animals, long-term in vivo studies, CPDB compilation (AID 1745844)
Settings: rat; strain Wistar; females; in drinking water; site: liver; lesion: hepatocellular carcinoma; dosed 157 weeks; study length 157 weeks
reported-property: TD50
In your response, put the unit directly after the numeric value.

TD50 of NN , assay on rodent lifetime carcinogenesis bioassay, tumor incidence TD50, is 129 mg/kg/day

----------
Tested on: rodent lifetime carcinogenesis bioassay, tumor incidence TD50
Assay: carcinogenic potency in animals, long-term in vivo studies, CPDB compilation (AID 1745844)
Details: mouse; strain B6C3F1; females; inhaled; site: all sites; lesion: hemangioma + hemangiosarcoma; dosed 95 weeks; study length 95 weeks
reported-property: TD50 (mg/kg/day)
Answer in mg/kg/day, number only, no unit symbol.

Form: molecule = FC(F)=C(F)F ; TD50 = 61.3

----------
System: rodent lifetime carcinogenesis bioassay, tumor incidence TD50
Assay: carcinogenic potency in animals, long-term in vivo studies, CPDB compilation (AID 1745844)
Settings: rat; strain Fischer 344; females; in drinking water; site: uterus; lesion: adenocarcinoma; dosed 100 weeks; study length 130 weeks
reported-property: TD50

Case C=COC(C)=O , rodent lifetime carcinogenesis bioassay, tumor incidence TD50, TD50 recorded as 494 mg/kg/day

----------
Test system: rodent lifetime carcinogenesis bioassay, tumor incidence TD50
Test: carcinogenic potency in animals, long-term in vivo studies, CPDB compilation (AID 1745844)
Conditions: rat; strain Crj:Wistar; males; in feed; site: stomach, glandular; lesion: adenoma; dosed 104 weeks; study length 104 weeks
reported-property: TD50

// recorded TD50 for Oc1ccccc1O : 64.5 mg/kg/day

----------
System: rodent lifetime carcinogenesis bioassay, tumor incidence TD50
Test: carcinogenic potency in animals, long-term in vivo studies, CPDB compilation (AID 1745844)
Conditions: mouse; strain B6C3F1; males; by gavage; site: all sites; lesion: all vascular tumors; dosed 104 weeks; study length 107 weeks
reported-property: TD50 (mg/kg/day)
Write it as a number; the unit mg/kg/day goes unstated.

Short answer for ClCc1ccccc1 : TD50 was 454

----------
Tested on: rodent lifetime carcinogenesis bioassay, tumor incidence TD50
Experiment: carcinogenic potency in animals, long-term in vivo studies, CPDB compilation (AID 1745844)
Conditions: rat; strain Osborne-Mendel; males; by gavage; site: kidney; lesion: tubular-cell adenocarcinoma; dosed 78 weeks; study length 110 weeks
reported-property: TD50 (mg/kg/day)
Report the value in mg/kg/day with no unit label.

Entry ClC=C(Cl)Cl — recorded TD50 = 7220

----------
Test system: rodent lifetime carcinogenesis bioassay, tumor incidence TD50
Experiment: carcinogenic potency in animals, long-term in vivo studies, CPDB compilation (AID 1745844)
Conditions: rat; strain Fischer 344; males; by gavage; site: liver; lesion: hepatocellular adenoma + hepatocellular carcinoma + neoplastic nodule; dosed 103 weeks; study length 105 weeks
reported-property: TD50 (mg/kg/day)
Kindly provide the numeric value in mg/kg/day only, without the unit symbol.

The reported TD50 of the compound CC1(C)COC1=O was 850

Looking up Nc1cc([N+](=O)[O-])ccc1O , I found its TD50 recorded as 1300

Note to self: TD50 recorded for CCCC(Cl)CCCC(Cl)CCC(Cl)CCC(Cl)CCC(Cl)CCCC(Cl)CCC (stereo unspecified) was 14500

Just so you know, measured TD50 for C=C(C)CCl came out at 714

What the record says about CC1=CC(=O)CC(C)(C)C1 : TD50 is 9080

// TD50 lookup, compound = ClC(Cl)(Cl)C(Cl)(Cl)Cl , result: 1340

----------
System: rodent lifetime carcinogenesis bioassay, tumor incidence TD50
Assay: carcinogenic potency in animals, long-term in vivo studies, CPDB compilation (AID 1745844)
Conditions: rat; strain Fischer 344; males; in drinking water; site: skin; lesion: squamous-cell carcinoma + squamous-cell papilloma; dosed 88 weeks; study length 92 weeks
reported-property: TD50

Documented TD50 of COc1cc(-c2ccc(N)c(OC)c2)ccc1N : 2.01 mg/kg/day

----------
System: rodent lifetime carcinogenesis bioassay, tumor incidence TD50
Experiment: carcinogenic potency in animals, long-term in vivo studies, CPDB compilation (AID 1745844)
Details: mouse; strain B6C3F1; females; by gavage; site: any site (literature study); lesion: several types; types named in the paper; dosed 52 weeks; study length 84 weeks
reported-property: TD50 (mg/kg/day)
Kindly answer with a numeric value in mg/kg/day, unit omitted.

Quick note, TD50 for C[C@]12CC[C@@H]3c4ccc(OC(=O)Cc5ccc(N(CCCl)CCCl)cc5)cc4CC[C@H]3[C@@H]1CC[C@@H]2OC(=O)Cc1ccc(N(CCCl)CCCl)cc1 landed at 0.562
